Hello, the source for this data is patent US20090221559A1, in case you need it.

- tgt: HCV NS5B polymerase (His-tagged, C-terminal 21 amino acid deleted NS5B, HC-J4) (Hepatitis C virus genotype 1b, UniProt O92972)
- Construct: The cDNA encoding NS5B amino acid 1-570 (HC-J4, genotype 1b); His tag (His6, from pET-21b) (C); made in house; host or cells: E. coli BL21 (DE3)
- Sequence (O92972 2417-3000, looked up, stated change not applied): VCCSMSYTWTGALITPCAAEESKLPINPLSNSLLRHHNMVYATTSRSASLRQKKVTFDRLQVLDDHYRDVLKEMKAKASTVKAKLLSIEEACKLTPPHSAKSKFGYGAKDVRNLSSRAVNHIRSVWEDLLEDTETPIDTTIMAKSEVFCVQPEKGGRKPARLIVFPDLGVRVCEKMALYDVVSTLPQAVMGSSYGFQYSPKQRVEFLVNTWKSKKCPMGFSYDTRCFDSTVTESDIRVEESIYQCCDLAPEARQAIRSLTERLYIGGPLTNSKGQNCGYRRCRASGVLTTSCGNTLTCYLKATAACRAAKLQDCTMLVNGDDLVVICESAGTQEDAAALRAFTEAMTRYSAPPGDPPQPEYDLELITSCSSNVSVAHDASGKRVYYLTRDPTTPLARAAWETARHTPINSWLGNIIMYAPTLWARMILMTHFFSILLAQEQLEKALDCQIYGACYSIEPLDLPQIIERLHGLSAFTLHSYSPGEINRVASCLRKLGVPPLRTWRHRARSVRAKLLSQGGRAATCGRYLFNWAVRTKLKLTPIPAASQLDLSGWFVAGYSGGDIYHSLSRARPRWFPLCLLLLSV
- assay: NS5b polymerase assay (biochemical RdRp assay, 3H-GTP incorporation, SPA beads)
- Parameters: species or system HCV genotype 1b
- setup_conditions: NS5B Polymerase Assay IC50, 200 nM enzyme, 3H-GTP incorporation, 2 h at 25° C.
measurement_name: IC50

What IC50 value was documented for this molecule, CCCCC(=O)N1c2ccccc2NC2=C(C(=O)CC(C)(C)C2)C1c1ccc(Cl)cc1Cl (stereo not shown) [compound 17] ?
> 42.7 µM

What IC50 value was documented for this molecule, CC1(C)CC(=O)C2=C(C1)Nc1ccccc1N(C(=O)Cc1ccc(Cl)cc1)C2c1cccnc1 (stereo not shown) [compound 247] ?
> 33.3 µM

What IC50 value was documented for this molecule, CC(=O)N1c2ccccc2NC2=C(C(=O)CC(C)(C)C2)[C@H]1c1ccc(OCc2ccccc2)cc1Cl (single isomer, unassigned) [compound 305] ?
0.035 µM

What IC50 value was documented for this molecule, CC(=O)N1c2ccccc2NC2=C(C(=O)CC(C)(C)C2)C1c1c(Cl)cccc1Cl (stereo not shown) [compound 50] ?
> 42.7 µM

What IC50 value was documented for this molecule, CC1(C)CC(=O)C2=C(C1)Nc1ccccc1N(C(=O)c1ccc(F)cc1)C2c1ccc(Br)cc1 (stereo not shown) [compound 113] ?
> 42.7 µM

What IC50 value was documented for this molecule, CC(=O)N1c2ccccc2NC2=C(C(=O)CC(C)(C)C2)C1c1ccc(Cl)cc1Cl (single isomer, unassigned) [compound 36] ?
> 41.3 µM

What IC50 value was documented for this molecule, CC(=O)N1c2ccccc2NC2=C(C(=O)CC(C)(C)C2)C1c1ccc2c(c1)OCO2 (stereo not shown) [compound 284] ?
> 42.7 µM

---

Consider the following compounds; for each one, report its IC50.
- tgt: HCV NS5B polymerase (His-tagged, C-terminal 21 amino acid deleted NS5B, HC-J4) (Hepatitis C virus genotype 1b, UniProt O92972)
- Construct: The cDNA encoding NS5B amino acid 1-570 (HC-J4, genotype 1b); His tag (His6, from pET-21b) (C); made in house; host or cells: E. coli BL21 (DE3)
- assay: NS5b polymerase assay (biochemical RdRp assay, 3H-GTP incorporation, SPA beads)
- Design: species or system HCV genotype 1b
- setup_conditions: NS5B Polymerase Assay IC50, 200 nM enzyme, 3H-GTP incorporation, 2 h at 25° C.

What IC50 value was documented for this compound, CC(=O)N1c2ccccc2NC2=C(C(=O)CC(C)(C)C2)C1c1ccc(-c2ccc([N+](=O)[O-])cc2Cl)o1 (stereo not drawn) [compound 279] ?
> 42.7 µM

What IC50 value was documented for this compound, CCCCOc1cccc(C2C3=C(CC(C)(C)CC3=O)Nc3ccccc3N2C(C)=O)c1 (stereo not drawn) [compound 79] ?
> 42.7 µM

What IC50 value was documented for this compound, CN(C)c1ccc(C2C3=C(CC(C)(C)CC3=O)Nc3ccccc3N2C(=O)C(F)(F)F)cc1 (stereo not drawn) [compound 108] ?
> 42.7 µM

What IC50 value was documented for this compound, CC1(C)CC(=O)C2=C(C1)Nc1ccccc1N(C(=O)c1ccccc1)C2c1ccc(Cl)cc1 (stereo not drawn) [compound 88] ?
18.5 µM

What IC50 value was documented for this compound, CCC(=O)N1c2ccccc2NC2=C(C(=O)CC(C)(C)C2)C1c1c(Cl)cccc1Cl (stereo not drawn) [compound 46] ?
> 42.7 µM

What IC50 value was documented for this compound, CC(=O)N1c2ccccc2NC2=C(C(=O)CC(C)(C)C2)C1c1cccc(Oc2ccccc2Br)c1 (stereo not drawn) [compound 149] ?
30.4 µM

What IC50 value was documented for this compound, CC(=O)N1c2ccccc2NC2=C(C(=O)CC(C)(C)C2)C1c1ccc(C(F)(F)F)cc1 (stereo not drawn) [compound 120] ?
> 133 µM

What IC50 value was documented for this compound, CC1(C)CC(=O)C2=C(C1)Nc1ccccc1N(C(=O)c1ccco1)C2c1ccc(Cl)cc1Cl (stereo not drawn) [compound 153] ?
4.05 µM

What IC50 value was documented for this compound, CC1(C)CC(=O)C2=C(C1)Nc1ccccc1N(C(=O)C(F)(F)F)C2c1cccc(Cl)c1Cl (stereo not drawn) [compound 25] ?
> 42.7 µM

What IC50 value was documented for this compound, CCCCOc1ccc(C2C3=C(CC(C)(C)CC3=O)Nc3ccccc3N2C(=O)C(F)(F)F)cc1 (stereo not drawn) [compound 115] ?
> 42.7 µM

What IC50 value was documented for this compound, CC(=O)N1c2ccccc2NC2=C(C(=O)CC(C)(C)C2)C1c1c(F)cccc1Cl (stereo not drawn) [compound 24] ?
> 42.7 µM

What IC50 value was documented for this compound, CCCCCC(=O)N1c2ccccc2NC2=C(C(=O)CC(C)(C)C2)C1c1ccccc1OC(C)CC (stereo not drawn) [compound 93] ?
> 42.7 µM

What IC50 value was documented for this compound, CC(C)CC(=O)N1c2ccccc2NC2=C(C(=O)CC(C)(C)C2)C1c1c(F)cccc1Cl (stereo not drawn) [compound 43] ?
> 42.7 µM

What IC50 value was documented for this compound, CC(C)C(=O)N1c2ccccc2NC2=C(C(=O)CC(C)(C)C2)C1c1ccccc1F (stereo not drawn) [compound 23] ?
> 42.7 µM

What IC50 value was documented for this compound, COc1ccc(C2C3=C(CC(C)(C)CC3=O)Nc3ccccc3N2C(=O)Cc2ccc(Cl)cc2)cc1 (stereo not drawn) [compound 12] ?
> 42.7 µM

What IC50 value was documented for this compound, CCC(=O)N1c2ccccc2NC2=C(C(=O)CC(C)(C)C2)C1c1ccc(-c2ccccc2[N+](=O)[O-])o1 (stereo not drawn) [compound 241] ?
> 42.7 µM

What IC50 value was documented for this compound, O=C1CC(c2ccco2)CC2=C1C(c1ccco1)N(C(=O)C(F)(F)F)c1ccccc1N2 (stereo not drawn) [compound 297] ?
> 42.7 µM

What IC50 value was documented for this compound, CC1(C)CC(=O)C2=C(C1)Nc1ccccc1N(C(=O)CC#N)C2c1ccc(Cl)cc1Cl (stereo not drawn) [compound 151] ?
1.25 µM

What IC50 value was documented for this compound, CC1(C)CC(=O)C2=C(C1)Nc1ccccc1N(C(=O)C1CC1)C2c1cccs1 (stereo not drawn) [compound 252] ?
> 42.7 µM

What IC50 value was documented for this compound, CC(=O)N1c2ccccc2NC2=C(C(=O)CC(C)(C)C2)C1c1ccc(OC(C)C)cc1 (stereo not drawn) [compound 114] ?
> 42.7 µM

What IC50 value was documented for this compound, CCCOc1ccccc1C1C2=C(CC(C)(C)CC2=O)Nc2ccccc2N1C(=O)CC (stereo not drawn) [compound 63] ?
> 42.7 µM

What IC50 value was documented for this compound, CC(=O)N1c2ccccc2NC2=C(C(=O)CC(C)(C)C2)C1c1ccc(OCc2ccccc2)c(Cl)c1 (single isomer, unassigned) [compound 303] ?
31.5 µM

What IC50 value was documented for this compound, CC(=O)N1c2ccccc2NC2=C(C(=O)CC(C)(C)C2)C1c1cc2c(cc1Br)OCO2 (stereo not drawn) [compound 277] ?
> 42.7 µM

What IC50 value was documented for this compound, CC1(C)CC(=O)C2=C(C1)Nc1ccccc1N(C(=O)Cc1ccccc1)C2c1ccc(Br)cc1 (stereo not drawn) [compound 95] ?
> 33.3 µM

What IC50 value was documented for this compound, CC(=O)N1c2ccccc2NC2=C(C(=O)CC(C)(C)C2)C1c1ccc(OCc2ccccc2)c(Cl)c1 (stereo not drawn) [compound 139] ?
1.01 µM

What IC50 value was documented for this compound, CC1(C)CC(=O)C2=C(C1)Nc1ccccc1N(C(=O)C(F)(F)F)C2c1ccc([N+](=O)[O-])cc1 (stereo not drawn) [compound 89] ?
> 42.7 µM

What IC50 value was documented for this compound, CC(C)C(=O)N1c2ccccc2NC2=C(C(=O)CC(C)(C)C2)C1c1ccc(OCc2ccccc2)cc1 (stereo not drawn) [compound 99] ?
> 42.7 µM

What IC50 value was documented for this compound, CC1(C)CC(=O)C2=C(C1)Nc1ccccc1N(C(=O)Cc1ccccc1)C2c1cc2c(cc1Br)OCO2 (stereo not drawn) [compound 268] ?
> 42.7 µM

What IC50 value was documented for this compound, O=C1CC(c2cccc([N+](=O)[O-])c2)CC2=C1C(c1ccco1)N(C(=O)C(F)(F)F)c1ccccc1N2 (stereo not drawn) [compound 296] ?
> 42.7 µM

What IC50 value was documented for this compound, CCCCC(CC)C(=O)N1c2ccccc2NC2=C(C(=O)CC(C)(C)C2)C1c1ccc(OCCC)c(OC)c1 (stereo not drawn) [compound 98] ?
> 42.7 µM

---

- tgt: HCV NS5B polymerase (His-tagged, C-terminal 21 amino acid deleted NS5B, HC-J4) (Hepatitis C virus genotype 1b)
- Construct: The cDNA encoding NS5B amino acid 1-570 (HC-J4, genotype 1b); His tag (His6, from pET-21b) (C); made in house; host or cells: E. coli BL21 (DE3)
- assay: NS5b polymerase assay (biochemical RdRp assay, 3H-GTP incorporation, SPA beads)
- Parameters: species or system HCV genotype 1b
- setup_conditions: 200 nM enzyme, 3H-GTP incorporation, 2 h at 25° C.; read-out: NS5B Polymerase Assay IC50
measurement_name: IC50

What IC50 value was documented for this compound, Cc1ccc(C2C3=C(CC(c4ccccc4F)CC3=O)Nc3ccccc3N2C(=O)c2ccccc2)cc1 (centres unmarked) [compound 166] ?
> 42.7 µM

What IC50 value was documented for this compound, CCC(=O)N1c2ccc(C(=O)c3ccccc3)cc2NC2=C(C(=O)CC(C)(C)C2)C1c1ccco1 (centres unmarked) [compound 261] ?
> 42.7 µM

What IC50 value was documented for this compound, Cc1ccc(C2CC(=O)C3=C(C2)Nc2ccccc2N(C(=O)C(F)(F)F)C3c2cccc(Cl)c2)cc1 (centres unmarked) [compound 230] ?
> 33.3 µM

What IC50 value was documented for this compound, CCOc1ccccc1C1CC(=O)C2=C(C1)Nc1ccccc1N(C(=O)C(F)(F)F)C2c1ccc(OC)cc1 (centres unmarked) [compound 173] ?
> 42.7 µM

What IC50 value was documented for this compound, CCCOc1ccccc1C1CC(=O)C2=C(C1)Nc1ccccc1N(C(=O)CC)C2c1ccc(OC)cc1 (centres unmarked) [compound 220] ?
> 42.7 µM

What IC50 value was documented for this compound, COc1ccc(C2CC(=O)C3=C(C2)Nc2ccccc2N(C(C)=O)C3c2ccc(Cl)cc2)cc1 (centres unmarked) [compound 165] ?
> 33.3 µM

What IC50 value was documented for this compound, Cc1ccc(C2C3=C(CC(c4cccc(Cl)c4)CC3=O)Nc3ccccc3N2C(=O)C(F)(F)F)cc1 (centres unmarked) [compound 225] ?
> 42.7 µM

What IC50 value was documented for this compound, O=C1CC(c2ccc(Cl)cc2)CC2=C1C(c1cccc([N+](=O)[O-])c1)N(C(=O)C(F)(F)F)c1ccccc1N2 (mixture of isomers) [compound 202] ?
> 33.3 µM

What IC50 value was documented for this compound, CCC(=O)N1c2ccccc2NC2=C(C(=O)CC(c3ccc(C)cc3)C2)C1c1cccc(Cl)c1 (mixture of isomers) [compound 195] ?
> 33.3 µM

What IC50 value was documented for this compound, O=C1CC(c2ccc(Cl)cc2)CC2=C1C(c1cccc(Cl)c1)N(C(=O)C(F)(F)F)c1ccccc1N2 (mixture of isomers) [compound 208] ?
> 33.3 µM

What IC50 value was documented for this compound, COc1ccc(C2C3=C(CC(c4cccc([N+](=O)[O-])c4)CC3=O)Nc3ccccc3N2C(C)=O)cc1OC (mixture of isomers) [compound 180] ?
> 42.7 µM

What IC50 value was documented for this compound, CCCCCC(=O)N1c2ccccc2NC2=C(C(=O)CC(c3cccc([N+](=O)[O-])c3)C2)C1c1ccc(OC)c(OC)c1 (centres unmarked) [compound 174] ?
> 42.7 µM

What IC50 value was documented for this compound, CCCCCC(=O)N1c2ccccc2NC2=C(C(=O)CC(c3ccc(OC)cc3)C2)C1c1ccc(Cl)cc1 (centres unmarked) [compound 232] ?
> 33.3 µM

What IC50 value was documented for this compound, Cc1ccc(C2CC(=O)C3=C(C2)Nc2ccccc2N(C(=O)C(F)(F)F)C3c2ccccc2Cl)cc1 (centres unmarked) [compound 169] ?
> 33.3 µM
